Sourced from patent US20260262643A1

# Tested on: oat, wild
# experiment-summary: Test C preemergence
# Format: in vivo, Avena fatua
# run-parameters: Test C, preemergence, 125 g ai/ha; 0 to 100 scale (0 no effect, 100 complete control)
Task for the reader: assign each of the following compounds its reported Oat, Wild plant response rating.

Notebook: Cc1cccc2c1OC(C(F)(F)F)CN2C(=O)c1cccc(-n2cnc(C(C)C)n2)c1 (single isomer, unassigned) [Compound 303] , Oat, Wild plant response rating read as 50

Notebook: Cc1ccc(-n2cnc(C(C)C)n2)cc1C(=O)N1CC(C(F)(F)F)Oc2c(Cl)cccc21 (single isomer, unassigned) [Compound 291] , Oat, Wild plant response rating read as 60

Notebook: "CC(C)c1ncn(-c2cc3c(c(C(=O)N4C[C@H](C)Oc5c(Cl)cccc54)c2)CCC3)n1" , Oat, Wild plant response rating read as 20

Notebook: "COc1ccc(-n2cnc(C(C)C)n2)cc1C(=O)N1C[C@H](C)Oc2c(C)cccc21" , Oat, Wild plant response rating read as 60

Notebook: "C[C@H]1CN(C(=O)c2cc(-n3cnc(C4CC4)n3)cc3c2OCCO3)c2cccc(Cl)c2O1" , Oat, Wild plant response rating read as 20

Notebook: "CCc1ccc(-n2cnc(C(C)C)n2)cc1C(=O)N1C[C@H](C)Oc2c(C)cccc21" , Oat, Wild plant response rating read as 90

Notebook: "COc1ccc(-n2cncn2)cc1C(=O)N1C[C@H](C)Oc2c(Cl)cccc21" , Oat, Wild plant response rating read as 50

Notebook: "CC(C)c1ncn(-c2ccc(S(=O)(=O)C(F)(F)F)c(C(=O)N3C[C@H](C)Oc4c(Cl)cccc43)c2)n1" , Oat, Wild plant response rating read as 0

Notebook: "COc1ncn(-c2cccc(C(=O)N3C[C@H](C)Oc4c(Cl)cccc43)c2)n1" , Oat, Wild plant response rating read as 0

Notebook: "COc1cc(C(=O)N2C[C@H](C)Oc3c(Cl)cccc32)cc(-n2cnc(C)n2)c1" , Oat, Wild plant response rating read as 50

Notebook: "Cc1ccc(-n2cnc(C3(O)CCCC3)n2)cc1C(=O)N1C[C@H](C)Oc2c(Cl)cccc21" , Oat, Wild plant response rating read as 20

Notebook: "CCc1c(C)cc(-n2cnc(C(C)C)n2)cc1C(=O)N1C[C@H](C)Oc2c(Cl)cccc21" , Oat, Wild plant response rating read as 0

Notebook: "Cc1cccc2c1O[C@@H](C)CN2C(=O)c1cc(-n2cnc(C(C)C)n2)cc2occc12" , Oat, Wild plant response rating read as 20
